Values were extracted from patent US20260159520A1.

Tested on: VCaP cells
Test: Cellular growth inhibition assay for VCaP cells
Type: cell-based
Conditions: Homo sapiens, 72 hours, CellTiter-Glo 2.0

# COMPOUND, GI50
rows = [
    ("CCc1cnn2c(NCc3ccc(OCCCN4CCN(CC5CCN(c6cnc(C(=O)N[C@H]7C(C)(C)[C@H](Oc8ccc(C#N)c(Cl)c8)C7(C)C)cn6)CC5)CC4)nc3)cc(N3CCCC[C@@H]3CCO)nc12 [Compound I-56]", "100 to 1000 nM"),
    ("CC1(C)[C@H](NC(=O)c2cnc(N3CCC(CN4CCN(CCN5C/C=C/CCOc6cccc(c6)-c6ccnc(n6)Nc6cccc(c6)C5)CC4)CC3)nc2)C(C)(C)[C@H]1Oc1ccc(C#N)c(Cl)c1 [Compound I-94]", "> 3500 nM"),
    ("CCc1cnn2c(NCc3ccc(OCCOCCN(C)C45CC(N(C)c6ncc(C(=O)N[C@H]7C(C)(C)[C@H](Oc8ccc(C#N)c(Cl)c8)C7(C)C)cn6)(C4)C5)nc3)cc(N3CCCC[C@H]3CCO)nc12 [Compound I-83]", "100 to 1000 nM"),
    ("COc1cc(F)ccc1-c1ccnc2[nH]c(C3CCN(CCOCCOCCOC4CCN(c5ncc(C(=O)N[C@H]6C(C)(C)[C@H](Oc7ccc(C#N)c(Cl)c7)C6(C)C)cn5)CC4)CC3)cc12 [Compound I-67]", "> 3500 nM"),
    ("CCc1cnn2c(NCc3ccc(N(C)CCOC4CCN(C5CN(c6ncc(C(=O)N[C@H]7C(C)(C)[C@H](Oc8ccc(C#N)c(Cl)c8)C7(C)C)cn6)C5)CC4)nc3)cc(N3CCCC[C@H]3CCO)nc12 [Compound I-85]", "100 to 1000 nM"),
]
